Source: patent US9527851B2

Dear all, this message contains pIC50 results, target or system JAK2 kinase (Homo sapiens (Human)).
pIC50 here: minus log base 10 of the concentration, concentration in moles per litre.

Consider the worked cases shown below.
# COMPOUND, MEASURED ON, OBS VALUE
data = [
    ("CN(c1ncnc2[nH]ccc12)[C@H]1C[C@H]2CNC(=O)C[C@H]2C1 [Example 147]", "JAK2 kinase (Homo sapiens (Human))", 8.30),
    ("CN(c1ncnc2[nH]ccc12)[C@H]1C[C@@H]2CN(C(=O)CCC#N)C[C@@H]2C1", "JAK2 kinase (Homo sapiens (Human))", 7.27),
]

Attention now turns to another entry.
Reported pIC50 (JAK2 kinase (Homo sapiens (Human))) for entry COc1nsc(NC(=O)N2CC[C@H]3CC(N(C)c4ncnc5[nH]ccc45)C[C@H]3C2)n1 (stereo partly drawn) is 8.15

---

IC50 tested on JAK2 kinase (Homo sapiens (Human), UniProt O60674): recorded values
Sequence (O60674 whole entry): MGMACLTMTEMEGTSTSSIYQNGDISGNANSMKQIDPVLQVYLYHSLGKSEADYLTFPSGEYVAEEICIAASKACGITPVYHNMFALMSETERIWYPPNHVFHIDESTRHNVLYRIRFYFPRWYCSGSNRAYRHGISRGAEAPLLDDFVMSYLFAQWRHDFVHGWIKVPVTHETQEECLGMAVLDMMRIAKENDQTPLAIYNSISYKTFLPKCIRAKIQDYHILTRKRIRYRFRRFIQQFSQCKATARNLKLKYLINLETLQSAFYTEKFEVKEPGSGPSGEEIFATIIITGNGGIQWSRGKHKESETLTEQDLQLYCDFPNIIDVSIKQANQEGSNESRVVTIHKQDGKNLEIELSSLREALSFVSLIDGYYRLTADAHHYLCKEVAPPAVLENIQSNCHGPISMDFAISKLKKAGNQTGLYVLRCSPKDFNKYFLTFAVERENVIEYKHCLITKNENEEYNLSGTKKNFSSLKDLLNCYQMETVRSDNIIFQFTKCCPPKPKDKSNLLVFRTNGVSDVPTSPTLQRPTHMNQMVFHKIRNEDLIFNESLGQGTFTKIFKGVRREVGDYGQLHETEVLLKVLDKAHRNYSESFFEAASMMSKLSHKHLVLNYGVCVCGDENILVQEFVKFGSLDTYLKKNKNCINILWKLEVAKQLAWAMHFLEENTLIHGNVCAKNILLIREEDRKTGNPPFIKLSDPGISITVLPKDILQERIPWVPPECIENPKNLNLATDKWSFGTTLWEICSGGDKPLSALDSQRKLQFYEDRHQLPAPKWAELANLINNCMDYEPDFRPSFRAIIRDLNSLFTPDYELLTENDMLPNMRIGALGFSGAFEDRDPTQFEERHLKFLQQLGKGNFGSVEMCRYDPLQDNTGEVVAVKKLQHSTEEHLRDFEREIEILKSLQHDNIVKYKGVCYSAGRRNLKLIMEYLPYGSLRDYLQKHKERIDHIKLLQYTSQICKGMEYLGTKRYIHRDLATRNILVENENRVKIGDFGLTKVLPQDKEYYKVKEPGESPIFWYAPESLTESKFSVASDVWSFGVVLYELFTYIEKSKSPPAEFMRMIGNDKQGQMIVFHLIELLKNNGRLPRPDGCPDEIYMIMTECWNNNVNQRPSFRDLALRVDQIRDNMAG
Return type: number; implicit unit nM.

# COMPOUND, MEASURED ON, IC50 (nM)
data = [
    ("CC(=O)N1CC[C@H]2CC(N(C)c3ncnc4[nH]ccc34)C[C@H]2C1 (stereo partly shown)", "JAK2 kinase (Homo sapiens (Human), UniProt O60674)", 16),
    ("CN(c1ncnc2[nH]ccc12)[C@H]1C[C@@H]2CN(C(=O)CO)C[C@@H]2C1", "JAK2 kinase (Homo sapiens (Human), UniProt O60674)", 45),
    ("COc1nsc(NC(=O)N2C[C@H]3C[C@@H](N(C)c4ncnc5[nH]ccc45)C[C@H]3C2)n1", "JAK2 kinase (Homo sapiens (Human), UniProt O60674)", 56),
]

Test item CN(c1ncnc2[nH]ccc12)[C@@H]1CC2CNC(=O)CC2C1 (stereo partly shown) ; JAK2 kinase (Homo sapiens (Human), UniProt O60674); reported IC50 was 23

---

The listing below reports log10 IC50 for molecules tested on JAK2 kinase (Homo sapiens (Human)).
Quick note: numbers are log10 of IC50, with nM as the unit.

# MOLECULE, MEASURED ON, OBS VALUE
measured = [
    ("Cc1nsc(N2C[C@H]3C[C@H](N(C)c4ncnc5[nH]ccc45)C[C@H]3C2)n1 [Example 65]", "JAK2 kinase (Homo sapiens (Human))", 2.25),
    ("CN(c1ncnc2[nH]ccc12)C1C[C@@H]2CCN(C(=O)CC#N)C[C@@H]2C1 (stereo partly drawn) [Example 39]", "JAK2 kinase (Homo sapiens (Human))", 2.05),
    ("CN(c1ncnc2[nH]ccc12)[C@@H]1C[C@@H]2CN(C(=O)Nc3nncs3)C[C@@H]2C1 [Example 73]", "JAK2 kinase (Homo sapiens (Human))", 1.67),
    ("CN(c1ncnc2[nH]ccc12)[C@H]1C[C@@H]2CN(C(=O)OCC(F)(F)F)C[C@@H]2C1 [Example 111]", "JAK2 kinase (Homo sapiens (Human))", 2.16),
    ("Cc1noc(N2C[C@H]3C[C@H](N(C)c4ncnc5[nH]ccc45)C[C@H]3C2)n1 [Example 61]", "JAK2 kinase (Homo sapiens (Human))", 1.40),
]

Value (log10 IC50, JAK2 kinase (Homo sapiens (Human))) for record CN(c1ncnc2[nH]ccc12)[C@@H]1C[C@@H]2CN(CC#N)C[C@@H]2C1 [Example 69] = 0.60

The value of log10 IC50 recorded for CN(c1ncnc2[nH]ccc12)[C@H]1C[C@@H]2CN(C(=O)Nc3nc(C4CC4)ns3)C[C@@H]2C1 [Example 49] when tested on JAK2 kinase (Homo sapiens (Human)) reads 1.15

Observed log10 IC50, JAK2 kinase (Homo sapiens (Human)), COc1nsc(NC(=O)N2C[C@H]3C[C@H](N(C)c4ncnc5[nH]ccc45)C[C@H]3C2)n1 [Example 34] : 0.70

Param item: COc1nnc(NC(=O)N2C[C@H]3C[C@H](N(C)c4ncnc5[nH]ccc45)C[C@H]3C2)s1 [Example 155] ; param system: JAK2 kinase (Homo sapiens (Human)); output log10 IC50: 1.61

Record CN(c1ncnc2[nH]ccc12)[C@@H]1C[C@@H]2CN(CCC#N)C[C@@H]2C1 [Example 68] / JAK2 kinase (Homo sapiens (Human)), log10 IC50 recorded as 1.26

CCc1nsc(NC(=O)N2C[C@H]3C[C@H](N(C)c4ncnc5[nH]ccc45)C[C@H]3C2)n1 [Example 48] tested on JAK2 kinase (Homo sapiens (Human)) gave log10 IC50: 1.49

Simply: COC(=O)CN1C[C@H]2C[C@H](N(C)c3ncnc4[nH]ccc34)C[C@H]2C1 [Example 24] , JAK2 kinase (Homo sapiens (Human)), log10 IC50 = 1.89

With JAK2 kinase (Homo sapiens (Human)) as the test system, CN(c1ncnc2[nH]ccc12)[C@@H]1C[C@@H]2CN(C(=O)CCC#N)C[C@@H]2C1 [Example 75] showed log10 IC50 of 2.19

The observed log10 IC50 for COC(=O)N1CC[C@H]2CC(N(C)c3ncnc4[nH]ccc34)C[C@H]2C1 (stereo partly drawn) [Example 36] when tested with JAK2 kinase (Homo sapiens (Human)) stands at 1.88

# value of log10 IC50, JAK2 kinase (Homo sapiens (Human)), item CN(c1ncnc2[nH]ccc12)[C@H]1C[C@H]2CNC(=O)C[C@H]2C1 [Example 40] = 1.36
